assay-text: Water solubility of blowing agents at 20° C.
setup-conditions: in water
experimental-readout: Water solubility at 20° C. (weight percent)

# input Given the compound COC , write its reported Water solubility at 20° C. (weight percent).
# output 7% weight percent

# input Given the compound [N-]=[N+]=O [Nitrous oxide] , write its reported Water solubility at 20° C. (weight percent).
# output 0.12 weight percent

# input Given the compound CCCC , write its reported Water solubility at 20° C. (weight percent).
# output <0.01% weight percent

# input Given the compound O=C=O [Carbon dioxide] , write its reported Water solubility at 20° C. (weight percent).
# output 0.8% weight percent

# input Given the compound CC(C)C , write its reported Water solubility at 20° C. (weight percent).
# output <0.01% weight percent

# input Given the compound [He] , write its reported Water solubility at 20° C. (weight percent).
# output <0.01 weight percent

Reference source: patent US20220354754A1
